// provenance: ChEMBL document CHEMBL1641443

- tgt: Envelope glycoprotein gp160 (Human immunodeficiency virus type 1 group M subtype B (isolate YU-2)(HIV-1), UniProt P35961)
- experiment: Binding affinity to HIV1 YU2 gp120 by isothermal titration calorimetry assay
- Parameters: species or system Human immunodeficiency virus type 1 (isolate YU2)
- condition_description: read-out: Kd
Each record gets a class by Kd: low bracket (below 2000 nM), middle bracket (2000 nM to below 3000 nM), high bracket (3000 nM or more)

(Q) Lab note: sort CN1CCC(CNC(=O)C(=O)Nc2ccc(Cl)c(F)c2)CC1 into the matching Kd band.
(A) high bracket

(Q) Lab note: sort CC1(C)O[C@@H](CN)[C@H](CNC(=O)C(=O)Nc2ccc(Cl)c(F)c2)O1 into the matching Kd band.
(A) middle bracket

(Q) Lab note: sort O=C(NCC1NCCc2ccccc21)C(=O)Nc1ccc(Cl)c(F)c1 (centres undefined) into the matching Kd band.
(A) low bracket

(Q) Lab note: sort Cc1n[nH]c(C)c1CNC(=O)C(=O)Nc1ccc(Cl)c(F)c1 into the matching Kd band.
(A) high bracket

(Q) Lab note: sort CN1CCCC(NC(=O)C(=O)Nc2ccc(Cl)c(F)c2)C1 (centres undefined) into the matching Kd band.
(A) high bracket

(Q) Lab note: sort CC1(C)CC(NC(=O)C(=O)Nc2ccc(Cl)c(F)c2)CC(C)(C)O1 into the matching Kd band.
(A) low bracket

(Q) Lab note: sort O=C(Nc1ccc(Cl)c(F)c1)C(=O)NC1CCNC2(CCC2)C1 (centres undefined) into the matching Kd band.
(A) low bracket

(Q) Lab note: sort CC(C)N1CCC(NC(=O)C(=O)Nc2ccc(Cl)c(F)c2)CC1 into the matching Kd band.
(A) low bracket

(Q) Lab note: sort O=C(NCC1CCCN(CCO)C1)C(=O)Nc1ccc(Cl)c(F)c1 (centres undefined) into the matching Kd band.
(A) high bracket

(Q) Lab note: sort O=C(NC[C@@]12CCC[C@@H]1CNC2)C(=O)Nc1ccc(Cl)c(F)c1 into the matching Kd band.
(A) high bracket

(Q) Lab note: sort C[C@@H]1CCC[C@H](C)N1CCNC(=O)C(=O)Nc1ccc(Cl)c(F)c1 into the matching Kd band.
(A) low bracket

(Q) Lab note: sort CC1(C)CC(CNC(=O)C(=O)Nc2ccc(Cl)c(F)c2)CC(C)(C)N1 into the matching Kd band.
(A) middle bracket

(Q) Lab note: sort CCCN1CCC(NC(=O)C(=O)Nc2ccc(Cl)c(F)c2)CC1 into the matching Kd band.
(A) high bracket

(Q) Lab note: sort CN1CCCC(CNC(=O)C(=O)Nc2ccc(Cl)c(F)c2)C1 (centres undefined) into the matching Kd band.
(A) middle bracket

(Q) Lab note: sort CC(C)N1CCCCC1CCNC(=O)C(=O)Nc1ccc(Cl)c(F)c1 (centres undefined) into the matching Kd band.
(A) middle bracket

(Q) Lab note: sort CCN1CCCC1CNC(=O)C(=O)Nc1ccc(Cl)c(F)c1 (centres undefined) into the matching Kd band.
(A) middle bracket

(Q) Lab note: sort CN1CCC(NC(=O)C(=O)Nc2ccc(Cl)c(F)c2)CC1 into the matching Kd band.
(A) high bracket

(Q) Lab note: sort CCCN1CCCC(NC(=O)C(=O)Nc2ccc(Cl)c(F)c2)C1 (centres undefined) into the matching Kd band.
(A) high bracket
